Ki overview
- TARGET OR SYSTEM: R232-STING (Homo sapiens, UniProt Q86WV6, H232R)
- Sequence (Q86WV6 155-341 H232R): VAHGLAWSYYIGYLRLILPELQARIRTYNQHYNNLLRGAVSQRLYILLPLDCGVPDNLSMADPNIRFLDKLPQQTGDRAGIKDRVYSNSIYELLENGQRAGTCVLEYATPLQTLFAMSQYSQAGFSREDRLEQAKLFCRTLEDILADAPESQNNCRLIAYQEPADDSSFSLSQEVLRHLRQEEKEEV
- ASSAY METHOD TEXT: biochemical
ENDPOINT NAME: Ki (nM)

{"MOLECULE": "CCn1nc(C)cc1-c1nnc(-c2cc(C(N)=O)cc3c2cnn3C[C@@H](C)C2CCNCC2)[nH]1 [ZZZ076]", "TARGET OR SYSTEM": "R232-STING (Homo sapiens, UniProt Q86WV6, H232R)", "CMP": "=", "RECORDED RESULT": 976}
{"MOLECULE": "CCn1nc(C)c(F)c1-c1nc(-c2cc(C(N)=O)cc3c2cnn3CCN2CCOCC2)n[nH]1 [Example C05]", "TARGET OR SYSTEM": "R232-STING (Homo sapiens, UniProt Q86WV6, H232R)", "CMP": "=", "RECORDED RESULT": 165}
{"MOLECULE": "CCn1nc(C)cc1-c1nc(-c2nc(C(N)=O)cc3c2cnn3C)n(CC(=O)O)n1 [YY29]", "TARGET OR SYSTEM": "R232-STING (Homo sapiens, UniProt Q86WV6, H232R)", "CMP": "=", "RECORDED RESULT": 20.2}
{"MOLECULE": "CCn1nc(C)cc1-c1nnc(-c2cc(C(N)=O)cc3c2cnn3CCCCC2CCNCC2)[nH]1 [YY15]", "TARGET OR SYSTEM": "R232-STING (Homo sapiens, UniProt Q86WV6, H232R)", "CMP": "=", "RECORDED RESULT": 329}
{"MOLECULE": "CCn1nc(C)cc1-c1nnc(-c2cc(C(N)=O)cc3c2cnn3[C@@H](C)CN(C)C)[nH]1 [ZZZ020]", "TARGET OR SYSTEM": "R232-STING (Homo sapiens, UniProt Q86WV6, H232R)", "CMP": ">", "RECORDED RESULT": 990}
{"MOLECULE": "CCn1nc(C)c(O)c1-c1n[nH]c(-c2nc(C(N)=O)cc3c2cnn3CCN2CC(F)C2)n1 [YY33]", "TARGET OR SYSTEM": "R232-STING (Homo sapiens, UniProt Q86WV6, H232R)", "CMP": "=", "RECORDED RESULT": 164}
{"MOLECULE": "CCn1nc(CO)cc1-c1nc(-c2nc(C(N)=O)cc3c2cnn3C)n(C)n1 [Example AB01]", "TARGET OR SYSTEM": "R232-STING (Homo sapiens, UniProt Q86WV6, H232R)", "CMP": "=", "RECORDED RESULT": 23.6}
{"MOLECULE": "CCN1CCCC[C@@H]1Cn1ncc2c(-c3nnc(-c4cc(C)nn4CC)[nH]3)cc(C(N)=O)cc21 (racemic) [ZZZ014]", "TARGET OR SYSTEM": "R232-STING (Homo sapiens, UniProt Q86WV6, H232R)", "CMP": ">", "RECORDED RESULT": 990}
{"MOLECULE": "CCn1nc(C)cc1-c1nnc(-c2cc(C(N)=O)cc3c2cnn3Cc2nc3c(o2)CNC3)[nH]1 [YY16]", "TARGET OR SYSTEM": "R232-STING (Homo sapiens, UniProt Q86WV6, H232R)", "CMP": "=", "RECORDED RESULT": 369}
{"MOLECULE": "CCn1nc(C)cc1-c1nnc(-c2cc(C(N)=O)cc3c2cnn3CC23CCCC2CNC3)[nH]1 (stereo not shown) [ZZZ060]", "TARGET OR SYSTEM": "R232-STING (Homo sapiens, UniProt Q86WV6, H232R)", "CMP": "=", "RECORDED RESULT": 541}
{"MOLECULE": "CCn1nc(C)c(F)c1-c1c[nH]c(-c2cc(C(N)=O)cc3c2cnn3C)n1 [Example G02]", "TARGET OR SYSTEM": "R232-STING (Homo sapiens, UniProt Q86WV6, H232R)", "CMP": "=", "RECORDED RESULT": 30.4}
{"MOLECULE": "CCn1nc(C)cc1-c1n[nH]c(-c2cc(C(N)=O)cc3c2cnn3CCN2CCO[C@@H](C3CC3)C2)n1 (racemic) [ZZZ117]", "TARGET OR SYSTEM": "R232-STING (Homo sapiens, UniProt Q86WV6, H232R)", "CMP": "=", "RECORDED RESULT": 848}
{"MOLECULE": "CCn1nc(C)c(F)c1-c1nc(CN)c(-c2nc(C(N)=O)cc3c2cnn3C)o1 [ZZZ045]", "TARGET OR SYSTEM": "R232-STING (Homo sapiens, UniProt Q86WV6, H232R)", "CMP": ">", "RECORDED RESULT": 900}
{"MOLECULE": "CCn1nc(C)cc1-c1n[nH]c(-c2cc(C(N)=O)cc3c2cnn3CCN2CCOC[C@@H]2CO)n1 [ZZZ116]", "TARGET OR SYSTEM": "R232-STING (Homo sapiens, UniProt Q86WV6, H232R)", "CMP": ">", "RECORDED RESULT": 990}
{"MOLECULE": "CCn1nc(C)cc1-c1nc(-c2nc(C(N)=O)cc3c2cnn3C)n(CCNC)n1 [ZZZ126]", "TARGET OR SYSTEM": "R232-STING (Homo sapiens, UniProt Q86WV6, H232R)", "CMP": ">", "RECORDED RESULT": 990}
{"MOLECULE": "CCn1nc(C)cc1-c1n[nH]c(-c2cc(C(N)=O)cc3c2cnn3CCN2CC3CCC(C2)O3)n1 [Example M03]", "TARGET OR SYSTEM": "R232-STING (Homo sapiens, UniProt Q86WV6, H232R)", "CMP": "=", "RECORDED RESULT": 159}
